- tested system: UniProt P70579
- assay overview: Agonist activity at rat mGluR8 receptor expressed in HEK293 cells by IP-1 HTRF assay
For each record, write down the corresponding EC50.

Name the reported EC50 value associated with the molecule `N[C@@H](CCP(=O)(O)O)C(=O)O` ~30 µM

Can you handle `CC[C@@]1(C(=O)O)C[C@H]1[C@H](N)C(=O)O` next? > 30 µM

###

- tested system: Metabotropic glutamate receptor 8 (Rattus norvegicus)
- Sequence (P70579 whole entry): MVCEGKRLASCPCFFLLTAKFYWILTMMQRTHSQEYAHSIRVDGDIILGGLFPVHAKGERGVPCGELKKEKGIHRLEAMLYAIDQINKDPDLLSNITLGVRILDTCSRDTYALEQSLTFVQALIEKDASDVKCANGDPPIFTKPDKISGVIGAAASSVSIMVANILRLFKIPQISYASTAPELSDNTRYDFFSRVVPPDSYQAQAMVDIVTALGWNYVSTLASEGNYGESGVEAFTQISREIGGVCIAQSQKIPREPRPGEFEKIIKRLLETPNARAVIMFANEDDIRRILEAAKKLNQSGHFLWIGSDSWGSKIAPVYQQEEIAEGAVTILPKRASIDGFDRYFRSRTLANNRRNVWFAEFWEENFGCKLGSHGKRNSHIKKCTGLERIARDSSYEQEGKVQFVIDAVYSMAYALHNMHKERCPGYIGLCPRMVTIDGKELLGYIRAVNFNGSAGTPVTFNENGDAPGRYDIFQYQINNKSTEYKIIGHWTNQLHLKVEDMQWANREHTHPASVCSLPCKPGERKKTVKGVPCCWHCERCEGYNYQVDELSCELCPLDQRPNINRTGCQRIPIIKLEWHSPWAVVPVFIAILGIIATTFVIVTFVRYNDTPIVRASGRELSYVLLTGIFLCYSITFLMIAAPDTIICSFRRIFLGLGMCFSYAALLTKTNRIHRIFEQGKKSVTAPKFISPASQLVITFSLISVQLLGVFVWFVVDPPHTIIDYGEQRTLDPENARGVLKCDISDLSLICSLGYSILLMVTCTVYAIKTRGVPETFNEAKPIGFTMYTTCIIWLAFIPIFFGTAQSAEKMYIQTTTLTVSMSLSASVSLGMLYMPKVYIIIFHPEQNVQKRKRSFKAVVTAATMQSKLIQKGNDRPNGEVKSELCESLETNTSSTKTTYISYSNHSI
- assay overview: Agonist activity at rat mGluR8 receptor expressed in HEK293 cells at 30 uM by IP-1 HTRF assay
- Type: functional, cell-based
Calls of active or inactive are those of the source. No cut-off for these calls is given here.
measured metric: Activity

Consider the worked cases shown below.
>>> measured("C[C@]1(C(=O)O)C[C@@H]1[C@H](N)C(=O)O")
"inactive"
>>> measured("C[C@@]1(C[C@H](N)C(=O)O)C[C@@H]1C(=O)O")
"inactive"
>>> measured("C[C@@]1(C[C@H](N)C(=O)O)C[C@H]1C(=O)O")
"inactive"
>>> measured("CC[C@]1(C(=O)O)C[C@@H]1[C@H](N)C(=O)O")
"inactive"
>>> measured("C[C@]1(C(=O)O)C[C@H]1C(N)C(=O)O (mixture of isomers)")
"inactive"
>>> measured("C[C@@]1(C(=O)O)C[C@H]1[C@H](N)C(=O)O")
"inactive"

Name the reported Activity value associated with the compound C[C@@]1(C(=O)O)C[C@@H]1C(N)C(=O)O (mixture of isomers) inactive

Can you handle `C[C@]1(C[C@H](N)C(=O)O)C[C@H]1C(=O)O` next? inactive

Can you handle `C[C@]1(C[C@H](N)C(=O)O)C[C@@H]1C(=O)O` next? inactive

###

- tested system: Metabotropic glutamate receptor 7 (Rattus norvegicus, UniProt P35400)
- Sequence (P35400 whole entry): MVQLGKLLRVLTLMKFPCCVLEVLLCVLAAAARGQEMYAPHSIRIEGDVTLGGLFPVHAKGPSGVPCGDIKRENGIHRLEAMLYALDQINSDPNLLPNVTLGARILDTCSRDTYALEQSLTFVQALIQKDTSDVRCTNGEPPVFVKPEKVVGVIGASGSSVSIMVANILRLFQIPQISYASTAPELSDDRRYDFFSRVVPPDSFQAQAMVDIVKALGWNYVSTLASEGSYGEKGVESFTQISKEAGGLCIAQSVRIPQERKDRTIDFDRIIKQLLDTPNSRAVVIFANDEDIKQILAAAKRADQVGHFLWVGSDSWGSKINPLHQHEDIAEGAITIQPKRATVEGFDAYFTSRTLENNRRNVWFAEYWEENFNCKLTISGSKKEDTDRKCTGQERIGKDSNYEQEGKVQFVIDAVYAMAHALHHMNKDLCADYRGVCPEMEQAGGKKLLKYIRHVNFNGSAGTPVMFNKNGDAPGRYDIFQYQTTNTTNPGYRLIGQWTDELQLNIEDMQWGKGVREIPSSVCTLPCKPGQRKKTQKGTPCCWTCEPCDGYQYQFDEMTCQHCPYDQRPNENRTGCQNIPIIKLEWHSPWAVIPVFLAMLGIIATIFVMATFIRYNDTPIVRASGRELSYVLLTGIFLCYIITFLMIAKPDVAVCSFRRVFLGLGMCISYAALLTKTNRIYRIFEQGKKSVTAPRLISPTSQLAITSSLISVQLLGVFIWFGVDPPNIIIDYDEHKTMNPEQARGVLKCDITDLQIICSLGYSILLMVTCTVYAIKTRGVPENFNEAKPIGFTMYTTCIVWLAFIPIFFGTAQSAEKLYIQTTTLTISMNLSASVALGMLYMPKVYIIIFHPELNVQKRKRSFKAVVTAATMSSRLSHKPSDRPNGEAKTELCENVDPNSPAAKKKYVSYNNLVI
- assay overview: Agonist activity at rat mGluR7 receptor expressed in HEK293 cells by IP-1 HTRF assay
For each record, write down the corresponding EC50.

Name the reported EC50 value associated with the molecule `CC[C@@]1(C(=O)O)C[C@H]1[C@H](N)C(=O)O` > 30 µM

Can you handle `N[C@@H](CCP(=O)(O)O)C(=O)O` next? ~30 µM

###

- tested system: Metabotropic glutamate receptor 2 (Homo sapiens, UniProt Q14416)
- assay overview: Agonist activity at mGluR2 receptor (unknown origin)
- Type: functional
measured metric: EC50 (µM)
Field: numeric (µM). Do not append units.

Name the reported EC50 value associated with the compound `N[C@H](C(=O)O)[C@@H]1C[C@H]1C(=O)O` 0.3

###

- tested system: Metabotropic glutamate receptor 4 (Rattus norvegicus)
- assay overview: Agonist activity at rat mGluR4 receptor expressed in HEK293 cells by IP-1 HTRF assay
measured metric: EC50

Name the reported EC50 value associated with the compound `N[C@@H](CCP(=O)(O)O)C(=O)O` ~30 µM

Can you handle `CC[C@@]1(C(=O)O)C[C@H]1[C@H](N)C(=O)O` next? > 30 µM

###

- tested system: Metabotropic glutamate receptor 5 (Rattus norvegicus, UniProt P31424)
- assay overview: Agonist activity at rat mGluR5 receptor expressed in HEK293 cells by IP-1 HTRF assay
- Assay type: functional, cell-based
- experimental setup: read-out: EC50
measured metric: pEC50
# pEC50: negative log10 of molar concentration; output just the value

Name the reported pEC50 value associated with the compound `C[C@@]1(C(=O)O)C[C@H]1[C@H](N)C(=O)O` 4.97

###

- tested system: Metabotropic glutamate receptor 6 (Rattus norvegicus, UniProt P35349)
- Sequence (P35349 whole entry): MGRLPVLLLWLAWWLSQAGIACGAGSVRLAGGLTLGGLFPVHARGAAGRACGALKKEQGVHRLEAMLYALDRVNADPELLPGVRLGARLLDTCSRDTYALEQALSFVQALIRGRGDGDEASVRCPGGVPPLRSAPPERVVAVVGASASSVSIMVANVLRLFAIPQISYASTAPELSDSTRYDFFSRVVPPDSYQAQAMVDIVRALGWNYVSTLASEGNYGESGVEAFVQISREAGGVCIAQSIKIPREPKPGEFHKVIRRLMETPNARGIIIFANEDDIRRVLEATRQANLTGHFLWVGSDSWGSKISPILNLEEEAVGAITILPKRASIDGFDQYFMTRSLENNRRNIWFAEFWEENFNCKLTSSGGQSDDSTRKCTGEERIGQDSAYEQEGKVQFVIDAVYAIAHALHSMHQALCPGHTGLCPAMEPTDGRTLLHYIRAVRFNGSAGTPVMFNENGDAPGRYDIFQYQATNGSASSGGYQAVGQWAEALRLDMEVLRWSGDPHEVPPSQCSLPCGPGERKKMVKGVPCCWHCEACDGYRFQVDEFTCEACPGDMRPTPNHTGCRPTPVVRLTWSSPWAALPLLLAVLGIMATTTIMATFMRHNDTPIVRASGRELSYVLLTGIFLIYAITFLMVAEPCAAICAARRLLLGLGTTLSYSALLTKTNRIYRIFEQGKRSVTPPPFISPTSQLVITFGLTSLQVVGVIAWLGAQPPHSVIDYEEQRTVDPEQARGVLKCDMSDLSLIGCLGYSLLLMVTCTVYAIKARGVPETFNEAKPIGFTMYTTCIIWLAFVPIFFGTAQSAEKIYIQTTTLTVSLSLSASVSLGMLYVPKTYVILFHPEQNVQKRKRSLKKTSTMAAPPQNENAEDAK
- assay overview: Agonist activity at rat mGluR6 receptor expressed in HEK293 cells by IP-1 HTRF assay
- Type: functional, cell-based
- experimental setup: read-out: EC50
measured metric: pEC50
# pEC50: negative log10 of molar concentration; output just the value

Name the reported pEC50 value associated with the compound `C[C@@]1(C(=O)O)C[C@H]1[C@H](N)C(=O)O` 5.66

Can you handle `CC[C@@]1(C(=O)O)C[C@H]1[C@H](N)C(=O)O` next? 4.58

Can you handle `N[C@@H](CCP(=O)(O)O)C(=O)O` next? 5.60

###

- tested system: Metabotropic glutamate receptor 3 (Rattus norvegicus, UniProt P31422)
- Sequence (P31422 whole entry): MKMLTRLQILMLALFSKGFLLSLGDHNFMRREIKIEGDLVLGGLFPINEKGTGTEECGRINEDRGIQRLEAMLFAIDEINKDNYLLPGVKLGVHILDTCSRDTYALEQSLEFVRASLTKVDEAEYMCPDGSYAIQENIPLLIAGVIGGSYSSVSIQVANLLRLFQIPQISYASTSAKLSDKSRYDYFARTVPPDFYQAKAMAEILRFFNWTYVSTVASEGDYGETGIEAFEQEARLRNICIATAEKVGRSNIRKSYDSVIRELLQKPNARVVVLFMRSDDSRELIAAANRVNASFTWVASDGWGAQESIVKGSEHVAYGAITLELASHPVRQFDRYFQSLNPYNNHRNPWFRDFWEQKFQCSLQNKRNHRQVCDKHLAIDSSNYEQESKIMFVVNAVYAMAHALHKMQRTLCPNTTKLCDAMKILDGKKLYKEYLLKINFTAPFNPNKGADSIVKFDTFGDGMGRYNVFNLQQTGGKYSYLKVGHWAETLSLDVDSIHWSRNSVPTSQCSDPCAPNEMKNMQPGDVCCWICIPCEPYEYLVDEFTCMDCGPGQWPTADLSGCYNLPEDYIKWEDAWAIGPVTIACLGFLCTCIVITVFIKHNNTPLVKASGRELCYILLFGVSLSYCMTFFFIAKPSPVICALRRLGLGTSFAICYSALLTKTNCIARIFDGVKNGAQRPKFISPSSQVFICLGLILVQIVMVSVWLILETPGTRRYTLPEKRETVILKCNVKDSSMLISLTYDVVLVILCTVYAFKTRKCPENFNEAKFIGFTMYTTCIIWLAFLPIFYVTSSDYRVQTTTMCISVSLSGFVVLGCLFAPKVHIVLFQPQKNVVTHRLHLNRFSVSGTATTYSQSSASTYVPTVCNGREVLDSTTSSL
- assay overview: Agonist activity at rat mGluR3 receptor expressed in HEK293 cells by IP-1 HTRF assay
measured metric: EC50

Name the reported EC50 value associated with the compound `CC[C@@]1(C(=O)O)C[C@H]1[C@H](N)C(=O)O` > 30000 nM

Can you handle N[C@@]1(C(=O)O)CO[C@H]2[C@H](C(=O)O)[C@H]21 [LY-379268] next? 9 nM

Can you handle `C[C@@]1(C(=O)O)C[C@H]1[C@H](N)C(=O)O` next? 1220 nM

###

- tested system: Metabotropic glutamate receptor 3 (Homo sapiens)
- Sequence (Q14832 whole entry): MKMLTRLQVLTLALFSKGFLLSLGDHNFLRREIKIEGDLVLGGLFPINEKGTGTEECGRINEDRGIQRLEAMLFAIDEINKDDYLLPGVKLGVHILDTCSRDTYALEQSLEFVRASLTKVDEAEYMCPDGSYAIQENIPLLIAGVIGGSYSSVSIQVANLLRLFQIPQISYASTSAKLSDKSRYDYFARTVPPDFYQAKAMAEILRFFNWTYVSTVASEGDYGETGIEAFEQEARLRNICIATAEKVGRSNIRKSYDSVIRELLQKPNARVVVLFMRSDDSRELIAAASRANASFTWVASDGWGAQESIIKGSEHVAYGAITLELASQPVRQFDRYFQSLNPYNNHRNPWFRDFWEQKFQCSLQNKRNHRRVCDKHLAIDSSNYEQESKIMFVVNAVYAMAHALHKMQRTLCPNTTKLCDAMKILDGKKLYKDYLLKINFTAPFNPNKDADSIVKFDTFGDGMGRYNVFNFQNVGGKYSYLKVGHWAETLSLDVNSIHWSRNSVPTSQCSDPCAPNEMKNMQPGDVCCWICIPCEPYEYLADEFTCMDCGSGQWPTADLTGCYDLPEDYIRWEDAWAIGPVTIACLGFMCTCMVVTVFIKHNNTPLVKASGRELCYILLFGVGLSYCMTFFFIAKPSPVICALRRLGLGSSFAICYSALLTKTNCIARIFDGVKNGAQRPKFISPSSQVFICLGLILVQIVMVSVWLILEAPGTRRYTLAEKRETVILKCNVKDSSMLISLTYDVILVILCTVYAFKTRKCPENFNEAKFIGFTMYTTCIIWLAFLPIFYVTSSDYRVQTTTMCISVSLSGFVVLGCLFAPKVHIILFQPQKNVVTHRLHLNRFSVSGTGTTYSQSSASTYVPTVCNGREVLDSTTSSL
- assay overview: Agonist activity at human recombinant mGluR3 receptor assessed as inhibition of forskolin-stimulated [3H]cAMP accumulation incubated for 20 mins by SPA kit analysis
For each record, write down the corresponding pEC50.
# pEC50: negative log10 of molar concentration; output just the value

Test system Metabotropic glutamate receptor 3 (Homo sapiens); read-out pEC50; what value for `N[C@@H](CCC(=O)O)C(=O)O` ? 5.05

Can you handle `C[C@H]1[C@H](C(=O)O)[C@H]1[C@H](N)C(=O)O` next? 7.42

Can you handle `N[C@H](C(=O)O)[C@H]1C[C@@H]1C(=O)O` next? 6.22

Can you handle `N[C@H](C(=O)O)[C@H]1[C@@H](CO)[C@@H]1C(=O)O` next? 7.42

Can you handle `N[C@@]1(C(=O)O)CC[C@@H](C(=O)O)C1` next? 3.07
